- System: HCT-15 colon
- ASSAY REMARKS: NCI tumour cell line growth inhibition, 48 h
OUTCOME MEASURE: TGI

Log: HCT-15 colon, compound CCOC(=O)CC1C(COC(=O)NC)OC(n2cnc3c(NC(=O)Nc4ccccc4)ncnc32)C1O[Si](C)(C)C(C)(C)C (centres undefined) , TGI = > 100 µM

Log: HCT-15 colon, compound CCOC(=O)CC1(c2cccc3ccccc23)OC(=O)c2ccccc21 (centres undefined) , TGI = > 100 µM

Log: HCT-15 colon, compound COc1ccc(N2C(=O)C3c4[nH]c5ccc(F)cc5c4C4CCC(c5ccccc5)CC4C3C2=O)cc1 (centres undefined) , TGI = > 100 µM

Log: HCT-15 colon, compound Cc1csc(/N=C\c2c(O)c3ccccc3oc2=O)n1 , TGI = > 100 µM

Log: HCT-15 colon, compound CC(C)(C)[Si](C)(C)OC1[C@@H](O[Si](C)(C)C(C)(C)C)[C@@H](CNC(=O)NC(=O)CCl)O[C@H]1n1cnc2c(NC(=O)Nc3ccccc3)ncnc21 (some centres undefined) , TGI = 6.56 µM

Log: HCT-15 colon, compound O=C(/C=C/c1ccccc1)n1c(-c2ccc(Cl)cc2)nc2ccccc21 , TGI = 7.06 µM

Log: HCT-15 colon, compound COc1ccc(N2C=Nn3c(nc4sc5c(c4c3=O)CCCC5)C2)cc1 , TGI = > 100 µM

Log: HCT-15 colon, compound CCCN(CCCC(NC(C)=O)C(=O)NCc1ccccc1)C(=O)NCCCl (centres undefined) , TGI = > 100 µM

Log: HCT-15 colon, compound C=C1C(=O)O[C@H]2[C@@H](O)[C@H](C)CCC[C@]3(C)O[C@H]3CC[C@@]3(C)O[C@@H]3C[C@@H]12 , TGI = 4.74 µM

The values you see were collected from PubChem BioAssay (NCI).
